The measured values listed here are drawn from ChEMBL document CHEMBL4184339.

pIC50 values by entry
System: Trypanosoma cruzi
Test: Antiparasitic activity against epimastigote stage of Trypanosoma cruzi Tulahuen assessed as inhibition of parasite proliferation after 48 hrs by Alamar Blue assay
Assay type: functional, organism-based
Scale for pIC50: -log10 of concentration given in mol/L; no unit attached.

• C=CCN(C)Cc1ccc(N2CCC(N(C)S(=O)(=O)c3ccc(Cl)cc3)CC2)cc1.Cl.Cl = 6.96

Moving on to the next compound.
Exam item: I would be grateful if you could share the reported pIC50 for CN(C)CCOc1ccc(OC2CCN(S(=O)(=O)c3ccc(F)cc3)CC2)cc1.Cl .
Marked response: 5.67

###

Target: Lanosterol synthase (Homo sapiens, UniProt P48449)
Sequence (P48449 whole entry): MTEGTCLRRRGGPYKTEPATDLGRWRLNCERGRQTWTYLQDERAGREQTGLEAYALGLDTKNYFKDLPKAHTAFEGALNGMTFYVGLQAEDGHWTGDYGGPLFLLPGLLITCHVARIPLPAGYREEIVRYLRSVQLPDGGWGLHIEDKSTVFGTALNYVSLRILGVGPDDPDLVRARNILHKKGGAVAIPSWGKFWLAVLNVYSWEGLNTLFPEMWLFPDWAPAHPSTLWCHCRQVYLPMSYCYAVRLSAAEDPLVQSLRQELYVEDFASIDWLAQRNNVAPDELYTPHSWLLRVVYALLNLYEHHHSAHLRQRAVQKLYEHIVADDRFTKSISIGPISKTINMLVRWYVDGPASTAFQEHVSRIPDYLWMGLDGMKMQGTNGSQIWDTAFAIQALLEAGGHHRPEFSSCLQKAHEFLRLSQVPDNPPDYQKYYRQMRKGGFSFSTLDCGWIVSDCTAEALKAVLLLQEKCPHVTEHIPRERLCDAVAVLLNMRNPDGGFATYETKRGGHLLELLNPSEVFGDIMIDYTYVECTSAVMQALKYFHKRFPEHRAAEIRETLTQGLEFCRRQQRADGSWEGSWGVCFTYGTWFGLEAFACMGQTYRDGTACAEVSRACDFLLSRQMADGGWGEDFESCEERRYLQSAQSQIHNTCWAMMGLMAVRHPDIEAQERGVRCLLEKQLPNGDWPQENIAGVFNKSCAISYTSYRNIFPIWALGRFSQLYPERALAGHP
IC50 values by entry
Supply the numeric figure in nM, leaving out any unit text.

• CN(C)CCOc1ccc(OC2CCN(S(=O)(=O)c3ccc(F)cc3)CC2)cc1.Cl = 120

Moving on to the next compound.
Exam item: I would be grateful if you could share the reported IC50 for C=CCN(C)Cc1ccc(N2CCC(N(C)S(=O)(=O)c3ccc(Cl)cc3)CC2)cc1.Cl.Cl .
Marked response: 16
